Recorded Ki, one value per entry.
ASSAY_TARGET: Cdc7 (BEV coexpressed huCDC7/DBF4) (Homo sapiens)
Sequence (O00311 whole entry): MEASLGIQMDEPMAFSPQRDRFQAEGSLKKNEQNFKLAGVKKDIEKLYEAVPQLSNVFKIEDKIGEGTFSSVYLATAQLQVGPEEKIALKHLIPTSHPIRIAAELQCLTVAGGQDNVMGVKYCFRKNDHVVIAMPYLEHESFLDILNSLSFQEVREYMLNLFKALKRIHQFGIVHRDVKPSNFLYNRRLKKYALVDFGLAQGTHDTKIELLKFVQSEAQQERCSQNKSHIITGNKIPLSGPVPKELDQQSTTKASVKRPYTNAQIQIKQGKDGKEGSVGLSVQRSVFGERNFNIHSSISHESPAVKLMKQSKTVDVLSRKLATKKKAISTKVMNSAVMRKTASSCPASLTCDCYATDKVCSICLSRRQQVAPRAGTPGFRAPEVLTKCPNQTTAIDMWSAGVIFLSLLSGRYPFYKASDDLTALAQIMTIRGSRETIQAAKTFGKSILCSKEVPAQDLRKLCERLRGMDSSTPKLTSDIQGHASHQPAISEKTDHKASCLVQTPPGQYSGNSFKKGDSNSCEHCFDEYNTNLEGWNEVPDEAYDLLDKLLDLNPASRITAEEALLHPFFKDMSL
Sequence (Q9UBU7 whole entry partner): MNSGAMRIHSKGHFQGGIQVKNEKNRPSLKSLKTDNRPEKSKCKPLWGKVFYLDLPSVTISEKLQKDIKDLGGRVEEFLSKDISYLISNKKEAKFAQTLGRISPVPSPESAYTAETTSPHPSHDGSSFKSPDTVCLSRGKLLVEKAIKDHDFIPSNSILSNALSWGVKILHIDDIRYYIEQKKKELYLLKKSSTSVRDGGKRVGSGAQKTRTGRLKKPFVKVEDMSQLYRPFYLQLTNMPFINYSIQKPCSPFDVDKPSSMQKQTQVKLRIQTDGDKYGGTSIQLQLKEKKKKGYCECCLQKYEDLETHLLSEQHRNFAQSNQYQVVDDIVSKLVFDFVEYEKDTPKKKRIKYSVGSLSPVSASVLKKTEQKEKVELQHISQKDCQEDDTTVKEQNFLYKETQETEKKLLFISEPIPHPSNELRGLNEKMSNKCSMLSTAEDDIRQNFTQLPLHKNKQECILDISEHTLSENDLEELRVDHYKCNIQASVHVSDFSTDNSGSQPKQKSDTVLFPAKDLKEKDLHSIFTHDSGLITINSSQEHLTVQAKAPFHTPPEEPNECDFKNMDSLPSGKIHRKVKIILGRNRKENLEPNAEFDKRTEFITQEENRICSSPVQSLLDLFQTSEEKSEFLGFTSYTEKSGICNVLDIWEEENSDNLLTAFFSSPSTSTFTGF
EXPERIMENTAL_DETAILS: Cdc7 enzyme inhibition assay ([33P]-ATP, biotinylated peptide substrate, FlashPlate)
RUN_CONDITIONS: Ki generated from IC50 assuming ATP-competitive inhibition; 1 μM ATP, apparent ATP Km 0.7 μM
REPORTED_METRIC: Ki

MOLECULE	RESULT
O=C(c1ccc([N+](=O)[O-])cc1)c1c[nH]c(=O)c2cc(-c3c[nH]c4ncccc34)cn12	< 0.01 µM
N#Cc1ccc(Cc2c[nH]c(=O)c3cc(-c4c[nH]c5ncccc45)cn23)cc1	< 0.01 µM
CS(=O)(=O)Nc1cccc(Cc2c[nH]c(=O)c3cc(-c4c[nH]c5ncccc45)cn23)c1	< 0.01 µM
CN1CCCC(C(=O)Nc2ccc(Cc3c[nH]c(=O)c4cc(-c5c[nH]c6ncccc56)cn34)cc2)C1 (stereo not shown)	< 0.01 µM
Nc1ccc(Cc2c[nH]c(=O)c3cc(-c4c[nH]c5ncccc45)cn23)cc1	< 0.01 µM
O=c1[nH]cc(Cc2cccc(N(C3CCC3)C3CCC3)c2)n2cc(-c3c[nH]c4ncccc34)cc12	0.01 to 0.1 µM
NC(=O)c1cccc(Cc2c[nH]c(=O)c3cc(-c4cn[nH]c4)cn23)c1	< 0.01 µM
O=C(Nc1ccc(Cc2c[nH]c(=O)c3cc(-c4c[nH]c5ncccc45)cn23)cc1)c1ccccc1	< 0.01 µM
O=C(Nc1ccc(Cc2c[nH]c(=O)c3cc(-c4c[nH]c5ncccc45)cn23)cc1)c1ccncc1	< 0.01 µM
CC(=O)NCc1ccc(Cc2c[nH]c(=O)c3cc(-c4c[nH]c5ncccc45)cn23)cc1	> 0.1 µM
N#Cc1cc(Cc2c[nH]c(=O)c3cc(-c4c[nH]c5ncccc45)cn23)ccc1F	< 0.01 µM
Nc1cccc(Cc2c[nH]c(=O)c3cc(-c4c[nH]c5ncccc45)cn23)c1	< 0.01 µM
CC(Nc1ccc(Cc2c[nH]c(=O)c3cc(-c4c[nH]c5ncccc45)cn23)cc1)C1CC1 (stereo not shown)	< 0.01 µM
